# Tested on: S. pneumoniae D39V
# MEASUREMENT_PROTOCOL: Bliss interaction score (quartile over a dose matrix) (fitness difference); higher = more antagonism (negative = synergy);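 note: first quartile when negative (synergy) and third quartile when positive (antagonism)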
MEASUREMENT_TYPE: Bliss interaction score

[[record]]
molecule = "CC(=O)NC[C@H]1CN(c2ccc(N3CCOCC3)c(F)c2)C(=O)O1 [Linezolid] + CN[C@H](CC(C)C)C(=O)N[C@H]1C(=O)N[C@@H](CC(N)=O)C(=O)N[C@H]2C(=O)N[C@H]3C(=O)N[C@H](C(=O)N[C@H](C(=O)O)c4cc(O)cc(O)c4-c4cc3ccc4O)[C@H](O[C@H]3C[C@](C)(N)[C@@H](O)[C@H](C)O3)c3ccc(c(Cl)c3)Oc3cc2cc(c3O[C@@H]2O[C@H](CO)[C@@H](O)[C@H](O)[C@H]2O[C@H]2C[C@](C)(NCc3ccc(-c4ccc(Cl)cc4)cc3)[C@@H](O)[C@H](C)O2)Oc2ccc(cc2Cl)[C@H]1O [Oritavancin]"
value = 0.0845


---

# Test system: S. aureus DSM 20231
# MEASUREMENT_PROTOCOL: Bliss interaction score (quartile over a dose matrix) (fitness difference); higher = more antagonism (negative = synergy)
Parameter: Bliss interaction score. Scope: all listed entries.
MEASUREMENT_TYPE: Bliss interaction score

[[record]]
molecule = "CO[C@H]1/C=C/O[C@@]2(C)Oc3c(C)c(O)c4c(O)c(c(/C=N/N5CCN(C)CC5)c(O)c4c3C2=O)NC(=O)/C(C)=C\\C=C\\[C@H](C)[C@H](O)[C@@H](C)[C@@H](O)[C@@H](C)[C@H](OC(C)=O)[C@@H]1C [Rifampicin] + CN(N=O)C(=O)N[C@@H](C=O)[C@@H](O)[C@H](O)[C@H](O)CO [Streptozotocin]"
value = 0.034

[[record]]
molecule = "CC[C@H]1OC(=O)[C@H](C)[C@@H](O[C@H]2C[C@@](C)(OC)[C@@H](O)[C@H](C)O2)[C@H](C)[C@@H](O[C@@H]2O[C@H](C)C[C@H](N(C)C)[C@H]2O)[C@](C)(O)C[C@@H](C)C(=O)[C@H](C)[C@@H](O)[C@]1(C)O [Erythromycin] + C[C@H]1COc2c(N3CCN(C)CC3)c(F)cc3c(=O)c(C(=O)O)cn1c23 [Levofloxacin]"
value = 0.0327


---

# System: S. aureus Newman
# MEASUREMENT_PROTOCOL: Bliss interaction score (quartile over a dose matrix) (fitness difference); higher = more antagonism (negative = synergy)
Parameter: Bliss interaction score. Scope: all listed entries.
MEASUREMENT_TYPE: Bliss interaction score

[[record]]
compound = "CC(=O)NC[C@H]1CN(c2ccc(N3CCOCC3)c(F)c2)C(=O)O1 [Linezolid] + Clc1ccc(COC(Cn2ccnc2)c2ccc(Cl)cc2Cl)c(Cl)c1 [Miconazole]"
value = -0.0524

[[record]]
compound = "CC(=O)NC[C@H]1CN(c2ccc(N3CCOCC3)c(F)c2)C(=O)O1 [Linezolid] + CO[C@@]12[C@H](COC(N)=O)C3=C(C(=O)C(C)=C(N)C3=O)N1C[C@@H]1N[C@@H]12 [MitomycinC]"
value = 0.0823

[[record]]
compound = "CN[C@@H]1[C@H](O)[C@H](NC)[C@H]2O[C@@]3(O)C(=O)C[C@@H](C)O[C@H]3O[C@@H]2[C@H]1O [Spectinomycin] + CC[C@H]1OC(=O)[C@H](C)C(=O)[C@H](C)[C@@H](O[C@@H]2O[C@H](C)C[C@H](N(C)C)[C@H]2O)[C@](C)(OC)C[C@@H](C)C(=O)[C@H](C)[C@H]2N(CCCCn3cnc(-c4cccnc4)c3)C(=O)O[C@]12C [Telithromycin]"
value = -0.0947

[[record]]
compound = "CC(=O)NC[C@H]1CN(c2ccc(N3CCOCC3)c(F)c2)C(=O)O1 [Linezolid] + CCN(CC)CCOC(=O)c1ccc(N)cc1 [Procaine]"
value = 0.111

[[record]]
compound = "CC(=O)NC[C@H]1CN(c2ccc(N3CCOCC3)c(F)c2)C(=O)O1 [Linezolid] + CN[C@H](CC(C)C)C(=O)N[C@H]1C(=O)N[C@@H](CC(N)=O)C(=O)N[C@H]2C(=O)N[C@H]3C(=O)N[C@H](C(=O)N[C@H](C(=O)O)c4cc(O)cc(O)c4-c4cc3ccc4O)[C@H](O)c3ccc(c(Cl)c3)Oc3cc2cc(c3O[C@@H]2O[C@H](CO)[C@@H](O)[C@H](O)[C@H]2O[C@H]2C[C@](C)(N)[C@H](O)[C@H](C)O2)Oc2ccc(cc2Cl)[C@H]1O [Vancomycin]"
value = -0.044

[[record]]
compound = "CC[C@H]1OC(=O)[C@H](C)[C@@H](O[C@H]2C[C@@](C)(OC)[C@@H](O)[C@H](C)O2)[C@H](C)[C@@H](O[C@@H]2O[C@H](C)C[C@H](N(C)C)[C@H]2O)[C@](C)(O)C[C@@H](C)C(=O)[C@H](C)[C@@H](O)[C@]1(C)O [Erythromycin] + C[C@@H](O)[C@H]1C(=O)N2C(C(=O)O)=C(SCCNC=N)C[C@H]12 [Imipenem]"
value = 0.0221

[[record]]
compound = "CO[C@@]12[C@H](COC(N)=O)C3=C(C(=O)C(C)=C(N)C3=O)N1C[C@@H]1N[C@@H]12 [MitomycinC] + CCN(CC)CCOC(=O)c1ccc(N)cc1 [Procaine]"
value = 0.0275

[[record]]
compound = "CO[C@@H]1[C@@H](OC(N)=O)[C@@H](O)[C@H](Oc2ccc3c(O)c(NC(=O)c4ccc(O)c(CC=C(C)C)c4)c(=O)oc3c2C)OC1(C)C [Novobiocin] + CC[C@H]1OC(=O)[C@H](C)C(=O)[C@H](C)[C@@H](O[C@@H]2O[C@H](C)C[C@H](N(C)C)[C@H]2O)[C@](C)(OC)C[C@@H](C)C(=O)[C@H](C)[C@H]2N(CCCCn3cnc(-c4cccnc4)c3)C(=O)O[C@]12C [Telithromycin]"
value = -0.0192

[[record]]
compound = "CC[C@H]1OC(=O)[C@H](C)[C@@H](O[C@H]2C[C@@](C)(OC)[C@@H](O)[C@H](C)O2)[C@H](C)[C@@H](O[C@@H]2O[C@H](C)C[C@H](N(C)C)[C@H]2O)[C@](C)(O)C[C@@H](C)C(=O)[C@H](C)[C@@H](O)[C@]1(C)O [Erythromycin] + Clc1ccc(COC(Cn2ccnc2)c2ccc(Cl)cc2Cl)c(Cl)c1 [Miconazole]"
value = 0.0457

[[record]]
compound = "CC[C@H]1OC(=O)[C@H](C)[C@@H](O[C@H]2C[C@@](C)(OC)[C@@H](O)[C@H](C)O2)[C@H](C)[C@@H](O[C@@H]2O[C@H](C)C[C@H](N(C)C)[C@H]2O)[C@](C)(O)C[C@@H](C)C(=O)[C@H](C)[C@@H](O)[C@]1(C)O [Erythromycin] + CCC[C@@H]1C[C@@H](C(=O)N[C@@H]([C@H]2O[C@H](SC)[C@H](O)[C@@H](O)[C@H]2O)[C@@H](C)O)N(C)C1 [Lincomycin]"
value = -0.1

[[record]]
compound = "CO[C@@]12[C@H](COC(N)=O)C3=C(C(=O)C(C)=C(N)C3=O)N1C[C@@H]1N[C@@H]12 [MitomycinC] + CN1C2=CC=CC=C2N=C3C1=CC=CC3=O [Pyocyanin]"
value = -0.0681

[[record]]
compound = "CN[C@@H]1[C@H](O)[C@H](NC)[C@H]2O[C@@]3(O)C(=O)C[C@@H](C)O[C@H]3O[C@@H]2[C@H]1O [Spectinomycin] + CN(N=O)C(=O)N[C@@H](C=O)[C@@H](O)[C@H](O)[C@H](O)CO [Streptozotocin]"
value = -0.046

[[record]]
compound = "CO[C@@]12[C@H](COC(N)=O)C3=C(C(=O)C(C)=C(N)C3=O)N1C[C@@H]1N[C@@H]12 [MitomycinC] + CC1(C)S[C@@H]2[C@H](NC(=O)Cc3ccccc3)C(=O)N2[C@H]1C(=O)O [PenicillinG]"
value = -0.0455

[[record]]
compound = "CO[C@@]12[C@H](COC(N)=O)C3=C(C(=O)C(C)=C(N)C3=O)N1C[C@@H]1N[C@@H]12 [MitomycinC] + COc1cc(Cc2cnc(N)nc2N)cc(OC)c1OC [Trimethoprim]"
value = -0.127


---

Parameter: Bliss interaction score. Scope: all listed entries.
# Tested on: S. aureus Newman
# MEASUREMENT_PROTOCOL: Bliss interaction score (quartile over a dose matrix) (fitness difference); higher = more antagonism (negative = synergy)
MEASUREMENT_TYPE: Bliss interaction score

[[record]]
molecule = "CN[C@@H]1[C@H](O)[C@H](NC)[C@H]2O[C@@]3(O)C(=O)C[C@@H](C)O[C@H]3O[C@@H]2[C@H]1O [Spectinomycin] + CN[C@@H]1[C@H](O[C@H]2[C@H](O[C@H]3[C@H](O)[C@@H](O)[C@H](N=C(N)N)[C@@H](O)[C@@H]3N=C(N)N)O[C@@H](C)[C@]2(O)C=O)O[C@@H](CO)[C@H](O)[C@H]1O [Streptomycin]"
target = "S. aureus Newman"
measurement_type = "Bliss interaction score"
value = 0.0625

[[record]]
molecule = "CC(=O)NC[C@H]1CN(c2ccc(N3CCOCC3)c(F)c2)C(=O)O1 [Linezolid] + CC[C@H]1OC(=O)[C@H](C)C(=O)[C@H](C)[C@@H](O[C@@H]2O[C@H](C)C[C@H](N(C)C)[C@H]2O)[C@](C)(OC)C[C@@H](C)C(=O)[C@H](C)[C@H]2N(CCCCn3cnc(-c4cccnc4)c3)C(=O)O[C@]12C [Telithromycin]"
target = "S. aureus Newman"
measurement_type = "Bliss interaction score"
value = -0.074

[[record]]
molecule = "CC[C@H]1OC(=O)[C@H](C)[C@@H](O[C@H]2C[C@@](C)(OC)[C@@H](O)[C@H](C)O2)[C@H](C)[C@@H](O[C@@H]2O[C@H](C)C[C@H](N(C)C)[C@H]2O)[C@](C)(O)C[C@@H](C)C(=O)[C@H](C)[C@@H](O)[C@]1(C)O [Erythromycin] + O=C1CN(/N=C/c2ccc([N+](=O)[O-])o2)C(=O)N1 [Nitrofurantoin]"
target = "S. aureus Newman"
measurement_type = "Bliss interaction score"
value = -0.0513

